# method description: protein stability index of a GFP-peptide fusion (GPS, HEK-293T) (PSI 1-6); higher = more stable;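 also: 24-mer peptide tiles fused after GFP, lentivirally expressed, FACS-sorted into six equal bins by GFP/DsRed ratio, decoded by Illumina sequencing, PSI is the read-weighted mean bin number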
# condition set: treatment: DMSO; c terminus: a fixed tail appended
measured parameter: protein stability index
Answers are plain numbers.

Check out these entries, answers already filled in.
PKTVPSHVFSELWDLSEAWMQANY [ELOA2]    2.6
VFDNAIRAALISRRHLQFWKSHLK [RHOBTB1]    2.06

Parameter requested: protein stability index. Apply to each item below.
1. AFEAARDLDACALVRGHRRRLLRR [ZSWIM9]
2. LLEKNASVNEVDFEGRTPMHVACQ [RIPK4]
3. VFSYFLATDMISIFEPPVRNSGII [EFHC1]
4. HLYPADFRFDKPKKSRSPASAEAP [ZNF511]
5. LHYGLPVVVKLLHPPSHWPLIKAT [CTNNB1]

1. 4.5
2. 3.83
3. 3.65
4. 3.38
5. 2.3

---

# method description: protein stability index of a GFP-peptide fusion (GPS, HEK-293T) (PSI 1-6); higher = more stable
# condition set: treatment: MLN4924 1 uM, 8 h; c terminus: a fixed tail appended
Assignment: determine reported protein stability index for the given sequences.
One number for each entry.

Check out these entries, answers already filled in.
EANGLLPDDKLTLFCEVSVVQDSV [SPOPL]    3.03
KKTCRRINYCALNKPGCEHECVNM [MATN2]    2.95
GIETLESVPIIGGFWETIFGNRIK [PHTF1]    2.81
KMKKLGQAMEEDLIVGLQGMDLNL [HDAC6]    3.5

Parameter requested: protein stability index. Apply to each item below.
1. WEEEKALWVEERALLEGEKALWED [CCDC70]
2. EKSTVVEGGEVRFNGKGKKIRKPR [DLX1]
3. TPQHHEKQYAMQRPNDDSLAFLDK [IQUB]
4. HLEIDDMYTPAYGDFDFDEVKFPN [MYORG]
5. PECGLAKKPPEESTCFERPCFKWY [ADAMTSL2]

[5.22, 5.06, 4.58, 4.26, 2.96]

---

# method description: protein stability index of a GFP-peptide fusion (GPS, HEK-293T) (PSI 1-6); higher = more stable
# condition set: treatment: DMSO; c terminus: a fixed tail appended
measured parameter: protein stability index

Check out these entries, answers already filled in.
DFPAHRIVLAACSDYFCAMFTSEL [KLHL12]    3.08
EVLRRLTSSVSCALDEAAAALTRM [ANKRD17]    2.3
RLDYLNLKGARLTVEQGCQILDSL [FBXO39]    3.25
WDLNMENRPIETYQVHDYLRSKLC [PPP2R2B]    2.65
AGARKIYAVEASTMAQHAEVLVKS [CARM1]    3.79
PHKGLNLHPLLSGRLGRWLRSTRF [PCDHGC5]    2.35

Parameter requested: protein stability index. Apply to each item below.
1. LNYLRDGSVPLPESTRELGELLGE [KCTD13]
2. AVVAVDRQAIFPDTWTLTEEHGLQ [PXN]
3. NKQTLSSGEKYDPDANTWTALPPM [GAN]
4. RKSVPGPGNRTCTGTSKRYQLCRV [ADAMTSL2]
5. AHKMKFSDLFSLAEEYEDSSTKPP [INTS3]
6. MTTPAGSGSGFGSVSWWGLSPALD [DNAAF3]
7. KVVLIGDSGVGKSNLLSRFTRNEF [RAB11A]
8. AKGWGPCYSRQFITSCPCWLEILL [SMAD6]

1: 4.5; 2: 3.35; 3: 4.07; 4: 2.91; 5: 4.22; 6: 2.47; 7: 2.33; 8: 2.69

---

# method description: protein stability index of a GFP-peptide fusion (GPS, HEK-293T) (PSI 1-6); higher = more stable
# condition set: treatment: MLN4924 1 uM, 8 h; c terminus: a fixed tail appended
Label Condition met for high-side protein stability index (at or above 3) and Condition not met for low-side protein stability index (below it).

Sample answers from the record:
VEQMTKEERQAAQNECQVLKLLNH [NEK8]    Condition met
RRGQEPLSALLQFGVTYLEDYSAE [BCL2L13]    Condition met
GYFAFMLFRKRLGSMILAFRPRPN [GDAP1]    Condition not met
RQQRLNQLEKPPEKEEDHAPEFIK [FAM107A]    Condition met
EAAFHPIEEYMVHVEEHFQLLARR [FUT8]    Condition met
LKNPFFRYTGTTPSPPPGSHYTSP [CARM1]    Condition met
QGPGGDEDDDEEDTDKLLNSASDP [PSD2]    Condition met
LRAELQGHHAEKLPAGAGAPKAGL [TNFSF13B]    Condition met

Does the sequence SEVSCKKRDDYLEWPEYFMAVAFL [DCTD] have recorded protein stability index that is 3 or more?
Condition not met

Does the sequence LAQIAEVLEMFDLRMMVENIMNKE [RHOBTB1] have recorded protein stability index that is 3 or more?
Condition not met

Does the sequence TLGEVPAAESPDPPQSPQGASSLP [MAGEA3] have recorded protein stability index that is 3 or more?
Condition met

Does the sequence ELRLVFGPLGDQLHAQLRDLTSSS [ELF3] have recorded protein stability index that is 3 or more?
Condition not met

Does the sequence LRVLGSMCQRLRSMQYNGSYFDRG [DFFB] have recorded protein stability index that is 3 or more?
Condition not met

---

Assignment: determine reported protein stability index for the given sequences.
# method description: protein stability index of a GFP-peptide fusion (GPS, HEK-293T) (PSI 1-6); higher = more stable
# condition set: treatment: MLN4924 1 uM, 8 h; c terminus: a fixed tail appended
Give bare numbers.

Check out these entries, answers already filled in.
KEEEQSCEYETRLPGNHSTSQEIF [ZNF232]    5
KPEAPLHLPVTFPGKDYDADRQCQ [ADAMTS4]    5.13

Please turn your attention to the following entry.
What value of protein stability index has been reported for the following sequence? RALQERLGQQQRDMRRDEEGSLCA [FBF1]
5.03

---

# method description: protein stability index of a GFP-peptide fusion (GPS, HEK-293T) (PSI 1-6); higher = more stable
# condition set: treatment: DMSO; c terminus: a fixed tail appended
Label 1 (yes) for high-side protein stability index (at or above 3) and 0 (no) for low-side protein stability index (below it).

Sample answers from the record:
YGICREPVGLVMEYMETGSLEKLL [RIPK4]    0 (no)
ICLMCVHSLERAGSKQYSAAIAFT [SMG5]    0 (no)
PVLGSSSGAGHGSGSGSGPGCGSV [SPAG8]    1 (yes)
LRALKLVITALKCHKYDRNIQVTG [ZER1]    1 (yes)
IDKGDIPDLTQAPSSLMETLEQHL [SNAP91]    1 (yes)

// next entry
Does the sequence KKPPEESTCFERPCFKWYTSPWSE [ADAMTSL2] have recorded protein stability index that is 3 or more?
0 (no)

---

# method description: protein stability index of a GFP-peptide fusion (GPS, HEK-293T) (PSI 1-6); higher = more stable
# condition set: treatment: DMSO; c terminus: a fixed tail appended
measured parameter: protein stability index
Answers are plain numbers.

Check out these entries, answers already filled in.
FLAAEQDIREEIRKVVQSLEQTAR [TSN]    2.57
SEFHPHHCNLFVYSSSKGSLRLCD [PPP2R2C]    2.23
TNAGFLQTESELQELSEVLELLSA [FAN1]    3.04
TYEKLSRAMRYYYKREILERVDGR [ELF3]    2.21
IRTKLNYNPPKDDGSTYKIELEGI [GAN]    2.76
VASCMHRQETVDCLKKFNARRKLK [CAMK2A]    4.05

Parameter requested: protein stability index. Apply to each item below.
1. YEENEGAGPYLLNGSYLELSSDRV [ADAMTSL2]
2. RIQIWFQNRRAKLKRSHRESQFLM [HESX1]
3. KNLLHAEFLRVQEERILHQQVKCI [VPS39]
4. IFSVLNSDDAAAPALETQPQGDEE [SMOC2]
5. KKSELLQRITQEQEKKLSFIEALI [TRIM63]

1. 3.88
2. 2.43
3. 2.58
4. 5.22
5. 2.07

---

# method description: protein stability index of a GFP-peptide fusion (GPS, HEK-293T) (PSI 1-6); higher = more stable
# condition set: treatment: MLN4924 1 uM, 8 h; c terminus: a fixed tail appended
measured parameter: protein stability index
One number for each entry.

Check out these entries, answers already filled in.
QGDPKGEMAATPAGFAQLTHLLMG [HDAC6]    3.06
YNRGEHPIFVNSPTLDAPGGRALV [SMAD6]    3.25
LKSISAEEILTLFCGAPPVTPIIV [PHTF1]    2.62
EVEKRGINGSEGDGAEIAEKFVFF [DYNC2LI1]    4.41
DWEIQEDSRLMCSSVQKALFEEED [CCDC3]    5.54
LMKHKSRKRRLFCTMEPEPVQPGM [TRIM35]    3.43
AVSDGRHMFVWGGYKSNQVRGLYD [KLHDC2]    2.27
PLYTLIDVLKYSYVRLVCKDVRAP [ZSWIM9]    3.02
RLLSDATVEKDESHAGKVVLRSWY [FAM50A]    3.26

Please turn your attention to the following entry.
What value of protein stability index has been reported for the following sequence? GTSTLLVWVGVIRYLTFFHNYNIL [MCOLN1]
2.99
